// provenance: the supplement of paper PMC7877785

Task for the reader: assign each of the following sequences its reported self-splicing fitness (ln).
- Procedure Details: self-splicing fitness, log relative to wild type (ln ratio); higher = more splicing; Tetrahymena group I intron in knt gene, E. coli kanamycin selection, DiMSum; sequences stand for … in CUCUCU…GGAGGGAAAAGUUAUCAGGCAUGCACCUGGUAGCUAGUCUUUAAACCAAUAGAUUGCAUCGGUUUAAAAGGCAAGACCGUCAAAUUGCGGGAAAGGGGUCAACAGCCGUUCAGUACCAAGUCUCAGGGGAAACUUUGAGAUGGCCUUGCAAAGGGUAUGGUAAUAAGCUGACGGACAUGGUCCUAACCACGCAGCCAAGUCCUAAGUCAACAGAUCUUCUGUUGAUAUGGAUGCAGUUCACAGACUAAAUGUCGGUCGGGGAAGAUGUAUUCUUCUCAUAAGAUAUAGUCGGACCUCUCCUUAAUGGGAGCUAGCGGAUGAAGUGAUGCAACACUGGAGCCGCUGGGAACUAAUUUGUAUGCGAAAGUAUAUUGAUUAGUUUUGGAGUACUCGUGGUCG;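 further: selection with 25 µg/mL kanamycin versus none on LB agar overnight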
- Experimental Parameters: 30 °C
Answers are plain numbers.

Field: example entries. Status: answers known.
{"columns": ["Monomer Sequence", "self-splicing fitness (ln)"],
 "data": [
  ["CUCGAGCAAUAUUACGUCCG", -3.41],
  ["GCUAAGCAAUAUUACGGUAG", -3.12],
  ["GAUAAGCAAUAUUACGAUAC", -1.52],
  ["CCUAAGCAAUAUUACGUUUA", -3.45]
]}

Look up self-splicing fitness (ln) for the entries below, preserving their order.
1. GCCGAGCAAUAUUACGAGUU
2. AGGCAGCAAUAUUACGGCCA
3. CGAAAGCAAUAUUACGGUCA
4. GAAUAGCAAUAUUACGCGAG
5. CCAAAGCAAUAUUACGUUGG
6. CCUCAGCAAUAUUACGGGAC
7. CCCUAGCAAUAUUACGCCGU

-1.62
-1.07
-0.303
-1.19
-4.54
-3.63
-2.57

Look up self-splicing fitness (ln) for the entries below, preserving their order.
1. CGAUAGCAAUAUUACGCGGA
2. AGUUAGCAAUAUUACGUGAA
3. CACUAGCAAUAUUACGUAUG
4. ACGGAGCAAUAUUACGGCCU
5. GAGUAGCAAUAUUACGUGCU

[-2.21, -2.78, -1.82, -2.12, -3.42]
